- Test system: SK-LMS-1 (Other Solid Carcinomas)
- measurement.notes: combination Emax (second highest fraction inhibited in the dose matrix, 72 h); higher = more inhibition; extreme values may be limits of the assay
Record form. Attribute: combination Emax. Fill in for each entry.

Please review the entries below; each comes with its answer.
| compound | target | combination Emax |
| --- | --- | --- |
| COc1nnc2ccc(N3CCC(c4ccc(OCCN5CCN(C)C(=O)[C@H]5C)cc4)CC3)nn12 [AZD5153] + C[C@@H]1COCCN1C2=NC(=NC(=C2)C3(CC3)[S@](=N)(=O)C)C4=C5C=CNC5=NC=C4 [AZD6738] (first compound max 1 µM, 7x7, partner max 10 µM) | SK-LMS-1 (Other Solid Carcinomas) | 0.61 |
| CS(=O)(=O)CCNCc1ccc(-c2ccc3ncnc(Nc4ccc(OCc5cccc(F)c5)c(Cl)c4)c3c2)o1 [Lapatinib] + NC1(c2ccc(-c3nc4ccn5c(=O)[nH]nc5c4cc3-c3ccccc3)cc2)CCC1 [MK-2206] (first compound max 10 µM, 7x7, partner max 10 µM) | SK-LMS-1 (Other Solid Carcinomas) | 0.927 |

Now consider a different compound.
query: GET /values?readout=combination Emax&item= CC(=O)c1c(C)c2cnc(Nc3ccc(N4CCNCC4)cn3)nc2n(C2CCCC2)c1=O [Palbociclib] + CC1(C)CCC(CN2CCN(c3ccc(C(=O)NS(=O)(=O)c4ccc(NCC5CCOCC5)c([N+](=O)[O-])c4)c(Oc4cnc5[nH]ccc5c4)c3)CC2)=C(c2ccc(Cl)cc2)C1 [Venetoclax] (first compound max 10 µM, 7x7, partner max 1 µM)
result: 0.147

====

Provide the reported Bliss excess of each item.
- Tested on: MCF7 (Breast Carcinoma)
- measurement.notes: Bliss excess, mean over the matrix (fraction); higher = more synergy
Numbers only.

Sample answers from the record:
| compound | observed.property | meas.value |
| --- | --- | --- |
| CN(CCO)CC[C@H](CSc1ccccc1)Nc1ccc(S(=O)(=O)NC(=O)c2ccc(N3CCC([C@@H](O)c4ccccc4-c4ccc(Cl)cc4)CC3)cc2)cc1S(=O)(=O)C(F)(F)F [AZD4320] + Cc1cc2ncnn2cc1Nc1ncc2c(n1)n(C1CCOCC1)c(=O)n2C [AZD7648] (first compound max 1 µM, 7x7, partner max 10 µM) | Bliss excess | -0.0357 |
| C=CCn1c(=O)c2cnc(Nc3ccc(N4CCN(C)CC4)cc3)nc2n1-c1cccc(C(C)(C)O)n1 [AZD1775] + C1CN(CCC1(C(=O)N[C@@H](CCO)C2=CC=C(C=C2)Cl)N)C3=NC=NC4=C3C=CN4 [Capivasertib] (first compound max 3 µM, partner max 3 µM) | Bliss excess | 0.0075 |

Query compound follows.
query: If you can, please state the reported Bliss excess value of CC1(C)CCC(CN2CCN(c3ccc(C(=O)NS(=O)(=O)c4ccc(NCC5CCOCC5)c([N+](=O)[O-])c4)c(Oc4cnc5[nH]ccc5c4)c3)CC2)=C(c2ccc(Cl)cc2)C1 [Venetoclax] + C=CCn1c(=O)c2cnc(Nc3ccc(N4CCN(C)CC4)cc3)nc2n1-c1cccc(C(C)(C)O)n1 [AZD1775] (first compound max 1 µM, partner max 1 µM) .
result: -0.0227

====

- Tested on: HCC1143 (Breast Carcinoma)
- measurement.notes: Bliss excess, mean over the matrix (fraction); higher = more synergy
Bliss excess vs 0.01: at or above is true, below is false.

| compound | classification |
| --- | --- |
| COc1nnc2ccc(N3CCC(c4ccc(OCCN5CCN(C)C(=O)[C@H]5C)cc4)CC3)nn12 [AZD5153] + Cn1cnc2c(F)c(Nc3ccc(Br)cc3Cl)c(C(=O)NOCCO)cc21 [Selumetinib] (first compound max 1 µM, 7x7, partner max 10 µM) | true |
| CN(CCO)CC[C@H](CSc1ccccc1)Nc1ccc(S(=O)(=O)NC(=O)c2ccc(N3CCC([C@@H](O)c4ccccc4-c4ccc(Cl)cc4)CC3)cc2)cc1S(=O)(=O)C(F)(F)F [AZD4320] + CCN(CCO)CCCOc1ccc2c(Nc3cc(CC(=O)Nc4cccc(F)c4)[nH]n3)ncnc2c1 [AZD2811] (first compound max 1 µM, 7x7, partner max 1 µM) | false |
| NC1(C(=O)N[C@@H](CCO)c2ccc(Cl)cc2)CCN(c2ncnc3[nH]ccc23)CC1 [Capivasertib] + CC(=O)c1c(C)c2cnc(Nc3ccc(N4CCNCC4)cn3)nc2n(C2CCCC2)c1=O [Palbociclib] (first compound max 10 µM, 7x7, partner max 10 µM) | true |
| CN(CCO)CC[C@H](CSc1ccccc1)Nc1ccc(S(=O)(=O)NC(=O)c2ccc(N3CCC([C@@H](O)c4ccccc4-c4ccc(Cl)cc4)CC3)cc2)cc1S(=O)(=O)C(F)(F)F [AZD4320] + Cn1cnc2c(F)c(Nc3ccc(Br)cc3Cl)c(C(=O)NOCCO)cc21 [Selumetinib] (first compound max 1 µM, 7x7, partner max 3 µM) | true |

query: State whether the measured Bliss excess reaches 0.01, counting equality as reaching it, for CC1(C)CCC(CN2CCN(c3ccc(C(=O)NS(=O)(=O)c4ccc(NCC5CCOCC5)c([N+](=O)[O-])c4)c(Oc4cnc5[nH]ccc5c4)c3)CC2)=C(c2ccc(Cl)cc2)C1 [Venetoclax] + C=CCn1c(=O)c2cnc(Nc3ccc(N4CCN(C)CC4)cc3)nc2n1-c1cccc(C(C)(C)O)n1 [AZD1775] (first compound max 1 µM, partner max 1 µM)
result: false

query: Can you check CC1(C)CCC(CN2CCN(c3ccc(C(=O)NS(=O)(=O)c4ccc(NCC5CCOCC5)c([N+](=O)[O-])c4)c(Oc4cnc5[nH]ccc5c4)c3)CC2)=C(c2ccc(Cl)cc2)C1 [Venetoclax] + C[C@@H](Nc1cc(F)cc(F)c1)c1cc(C(=O)N(C)C)cc2c(=O)cc(N3CCOCC3)oc12 [AZD8186] (first compound max 1 µM, 7x7, partner max 3 µM) next?
result: false

====

Kindly state combination Emax for each of the entries shown.
- Tested on: SK-LMS-1 (Other Solid Carcinomas)
- measurement.notes: combination Emax (second highest fraction inhibited in the dose matrix, 72 h); higher = more inhibition; extreme values may be limits of the assay
One number for each entry.

| compound | meas.value |
| --- | --- |
| O=C(c1cc(Cc2n[nH]c(=O)c3ccccc23)ccc1F)N1CCN(C(=O)C2CC2)CC1 [Olaparib] + CN(CC[C@H](CSC1=CC=CC=C1)NC2=C(C=C(C=C2)S(=O)(=O)NC(=O)C3=CC=C(C=C3)N4CCC(CC4)[C@H](C5=CC=CC=C5C6=CC=C(C=C6)Cl)O)S(=O)(=O)C(F)(F)F)CCO [AZD4320] (first compound max 10 µM, 7x7, partner max 1 µM) | 0.494 |

Would you mind giving combination Emax for every compound in the list below?
1. COc1nnc2ccc(N3CCC(c4ccc(OCCN5CCN(C)C(=O)[C@H]5C)cc4)CC3)nn12 [AZD5153] + Cn1cnc2c(F)c(Nc3ccc(Br)cc3Cl)c(C(=O)NOCCO)cc21 [Selumetinib] (first compound max 1 µM, 7x7, partner max 10 µM)
2. C[C@@H](c1ccc2nccn2c1)n1nnc2ncc(-c3cnn(C)c3)nc21 [Savolitinib] + CC1(C)CCC(CN2CCN(c3ccc(C(=O)NS(=O)(=O)c4ccc(NCC5CCOCC5)c([N+](=O)[O-])c4)c(Oc4cnc5[nH]ccc5c4)c3)CC2)=C(c2ccc(Cl)cc2)C1 [Venetoclax] (first compound max 1 µM, 7x7, partner max 1 µM)

result:
[0.666, 0.223]

====

- Tested on: CAL-39 (Other Solid Carcinomas)
- measurement.notes: Bliss excess, mean over the matrix (fraction); higher = more synergy
observed.property: Bliss excess
One number for each entry.

| compound | Bliss excess |
| --- | --- |
| CN(CCO)CC[C@H](CSc1ccccc1)Nc1ccc(S(=O)(=O)NC(=O)c2ccc(N3CCC([C@@H](O)c4ccccc4-c4ccc(Cl)cc4)CC3)cc2)cc1S(=O)(=O)C(F)(F)F [AZD4320] + CC(=O)O[C@H]1C(=O)[C@@]2(C)[C@H]([C@H](OC(=O)c3ccccc3)[C@]3(O)C[C@H](OC(=O)[C@H](O)[C@@H](NC(=O)c4ccccc4)c4ccccc4)C(C)=C1C3(C)C)[C@]1(OC(C)=O)CO[C@@H]1C[C@@H]2O [Paclitaxel] (first compound max 1 µM, 7x7, partner max 3 µM) | 0.0298 |
| Cc1c2c(nn1C)CSCc1cc(n(C)n1)CSc1cc(c3ccccc3c1)OCCCc1c(C(=O)O)n(C)c3c-2c(Cl)ccc13 [AZD5991] + C[C@@H]1COCCN1C2=NC(=NC(=C2)C3(CC3)[S@](=N)(=O)C)C4=C5C=CNC5=NC=C4 [AZD6738] (first compound max 1 µM, 7x7, partner max 10 µM) | -0.0411 |
| CCN(CCO)CCCOc1ccc2c(Nc3cc(CC(=O)Nc4cccc(F)c4)[nH]n3)ncnc2c1 [AZD2811] + O=C(c1cc(Cc2n[nH]c(=O)c3ccccc23)ccc1F)N1CCN(C(=O)C2CC2)CC1 [Olaparib] (first compound max 1 µM, 7x7, partner max 10 µM) | 0.0017 |
| Cn1cnc2c(F)c(Nc3ccc(Br)cc3Cl)c(C(=O)NOCCO)cc21 [Selumetinib] + C[C@@H]1COCCN1C2=NC(=NC(=C2)C3(CC3)[S@](=N)(=O)C)C4=C5C=CNC5=NC=C4 [AZD6738] (first compound max 10 µM, 7x7, partner max 10 µM) | -0.0152 |
| CN(CCO)CC[C@H](CSc1ccccc1)Nc1ccc(S(=O)(=O)NC(=O)c2ccc(N3CCC([C@@H](O)c4ccccc4-c4ccc(Cl)cc4)CC3)cc2)cc1S(=O)(=O)C(F)(F)F [AZD4320] + Cc1cc2ncnn2cc1Nc1ncc2c(n1)n(C1CCOCC1)c(=O)n2C [AZD7648] (first compound max 1 µM, 7x7, partner max 10 µM) | -0.03 |

Field: next compound
query: Param readout= Bliss excess; system= CAL-39 (Other Solid Carcinomas); entry= COc1cccc(OCCCN)c1-c1cc(Nc2cnc(C#N)cn2)n[nH]1 [Prexasertib] + C=CCn1c(=O)c2cnc(Nc3ccc(N4CCN(C)CC4)cc3)nc2n1-c1cccc(C(C)(C)O)n1 [AZD1775] (first compound max 1 µM, partner max 1 µM) ; returns value.
result: 0.0679
